tested on: Klebsiella pneumoniae ATCC 700603; experiment: in vitro antimicrobial activity, MIC by agar plate incubation (Japan Society for Chemotherapy method); type: cell-based; settings: ATCC700603, SHV-18, ESBL producing strain, 1000 cfu/spot, sensitive disc medium, read-out: Minimum Inhibitory Concentration (MIC)
So I've got a bunch of compounds here, and I need their MIC values.
Report only the number, with the unit µg/mL understood.

Please indicate MIC recorded for CC(C)(O/N=C(\C(=O)N[C@@H]1C(=O)N2C(C(=O)O)=C(C[N+]3(CCNC(=O)c4cc(=O)c(O)cn4O)CCCC3)CS[C@H]12)c1csc(N)n1)C(=O)[O-] [Compound I-6]
0.25

Return reported MIC. Input compound: Nc1nc(/C(=N/O[C@@H](CC(=O)O)C(=O)[O-])C(=O)N[C@@H]2C(=O)N3C(C(=O)O)=C(C[N+]45CCC[C@H]4CN(C(=O)c4cc(=O)c(O)c[nH]4)CC5)CS[C@H]23)cs1 (stereo partly shown) [Compound I-11]
0.5

Output measured MIC for this item: CC(C)(O/N=C(\C(=O)N[C@@H]1C(=O)N2C(C(=O)O)=C(C[N+]34CCC(CNC(=O)c5cc(=O)c(O)c[nH]5)(CC3)CC4)CS[C@H]12)c1csc(N)n1)C(=O)[O-] [Compound I-2]
1

Give reported MIC value for CC(C)(O/N=C(\C(=O)N[C@@H]1C(=O)N2C(C(=O)[O-])=C(C[N+]3(CCNC(=O)c4cc(=O)c(O)c[nH]4)CCCC3)CS[C@H]12)c1csc(N)n1)C(=O)[O][Na] [Compound I-4]
0.25
